Tested on: MS2 coat protein
Assay: apparent KD of MS2 coat protein; designed switch direction (-1 OFF switch, 1 ON switch): -1; higher = weaker reporter binding
Conditions: Eterna round: R95; input ligand: none
Would you please tag the item class 1 when its apparent KD of MS2 coat protein is 100 nM or above, and class 0 when it is below?

# input # bool: apparent KD of MS2 coat protein of AAGAAACAUGAGGAUCACCCAUGUGAGGAUAUGAUCAAGAAAAGAAAAGAAAGAAGACUCAGAAGGCACAAAGG [salish99-ex1_r3_071] (puzzle: Exclusion 1) >= 100 nM
# output class 1

# input Check the entry UUUAACAAGCCAGAUCCUCACAUGAGGAUCACCCAUGUGCUCGUCUGAUUUUGUACUAUCAUGUGAGUGAUAGUGUU [Level Boss var2-06] (puzzle: Sensor v3, turn-off variant 1) : does apparent KD of MS2 coat protein equal or exceed 100 nM?
# output class 1

# input Threshold query (apparent KD of MS2 coat protein >= 100 nM) on AACAAGCUUUUAAGAUGAAAGAUAGUAGGUAGCUCCUUUACAUGAGGAUCACCCAUGUUUGUGUAGCUCGAUCUUAU [JR_SV3TOV2_Sub076] (puzzle: Sensor v3, turn-off variant 2)
# output class 0

# input Reported apparent KD of MS2 coat protein reaches at least 100 nM for AGAGAGUCAGGAUAUCGAAGGUAGAGAAAAGGAGAGAGGUACGAGAAGGGACAUGAGGAUCACCCAUGUAGGUG [JR_Exclusion4)Sub014] (puzzle: Exclusion 4) ?
# output class 1

# input Identify whether the reported apparent KD of MS2 coat protein of the following sequence is 100 nM or greater: GAAAAGGUAGGAUAUACGAAAAAAAAGGGUAGGAAAAAAACACAUGAGGAUCACCCAUGUAGAAGGACCAAAAG [salish99_ex2_r3_024] (puzzle: Exclusion 2)
# output class 0

# input Tell me whether apparent KD of MS2 coat protein is at least 100 nM here: GCCAGAGCAGGAUAUUCAAUAAUCCACAUGAGGAUCACCCAUGUCCUGCGAAAGCAGGAGGGAGAAGGGCUCUGGC [Mat - Exclusion 5 - Eli mod - D89] (puzzle: Exclusion 5)
# output class 0

# input Check if apparent KD of MS2 coat protein >= 100 nM (inclusive). Item: UAAUACAAGUAGAGAUUCUACAUGAGGAUCACCCAUGUGCUCGUCUUAUAAAGUACUAUCACGAAAGUGAUAGUACA [Mat - Sensor v3 - turn-off var 1 - Eli Mod - D97] (puzzle: Sensor v3, turn-off variant 1)
# output class 0

----------
Give measured apparent KD of MS2 coat protein for each item. Keep answers brief.
Tested on: MS2 coat protein
Assay: apparent KD of MS2 coat protein; designed switch direction (-1 OFF switch, 1 ON switch): 1; higher = weaker reporter binding
Conditions: input ligand: microRNA oligo, concentration not stated
Note: unit nM is implicit; provide only the numeric part.

# input Field: apparent KD of MS2 coat protein (MS2 coat protein). Entry: UGGCUGGUGCUAGGAUAUGCAUGAGGCCUCCUCGUAGAAGGAGCGCGACAUGAGGAUCACCCAUGUAGCCGUCCGUAGACGGCU [salish99_SSNG1_r04_012] (Eterna round: R96, puzzle: Same State NG 1)
# output 100

# input Please state recorded apparent KD of MS2 coat protein (tested on MS2 coat protein) of UCUUGGUUUUUGCUCGUUUUUUGUGUUGAACAUGAGGAUCACCCAUGUAUUGUACAAUCCGGUUUGAUGAUGGUCCA [JMF 47] (Eterna round: R96, puzzle: Sensor for hsa-mir-208a)
# output 55.5

# input Hi! What's the reported apparent KD of MS2 coat protein for UGUUGUAUUACAGGAUAUCUAUGAUUAUUAUUUAGAGAAGGGUAUUCACAUGAGGAUCACCCAUGUAUAUACGAGGAAGUUGUG [JMF's solution 59] (Eterna round: R96, puzzle: Same State NG 1) on MS2 coat protein?
# output 31.2

# input Under MS2 coat protein: apparent KD of MS2 coat protein value of GGCGUAUAAACAUGAGGAUCACCCAUGUUGCGGAGACGCAAUGAGGAUAUCGAUGGGUUUCCCGUCGAGAAGGCGUGGGUCGCC [JL SSNG3 3.95] (Eterna round: R96, puzzle: Same State NG 3) ?
# output 24.6

# input Checklist item: apparent KD of MS2 coat protein tested on MS2 coat protein, entry GCCAACUAAUGAGGAUAUGGCACCUUAUUGGUGCCAGAAGGCAUGUCAAAAGACAUGAGGAUCACCCAUGUAUUAUAGUUGGCA [Mat - Same State NG 1 - JL mod - D73] (Eterna round: R96, puzzle: Same State NG 1) , value?
# output 62.5

----------
Tested on: MS2 coat protein
Assay: apparent KD of MS2 coat protein; designed switch direction (-1 OFF switch, 1 ON switch): -1; higher = weaker reporter binding
Conditions: input ligand: microRNA oligo, concentration not stated
readout: apparent KD of MS2 coat protein (nM)
Record the value in nM, omitting the unit from your answer.

# input Fill in: apparent KD of MS2 coat protein of CUAAAUCAUGUAGGAUAUGCAUAGCGAAGCUAUGCAGAAGGACAUGAGGAUCACCCAUGUUCUUCCGUCUGCGUACAGACGGAA [Mat - Exclusion NG 1 - Mod of JL - D30] (Eterna round: R96, puzzle: Exclusion NG 1) is ___
# output 32.4

# input What does the data say about its apparent KD of MS2 coat protein? Entry: UCCGGGUUUGUAGGAUAUAGUCUGCUUUGCAGACUAGAAGGACAUGAGGAUCACCCAUGUUGUGGAAAUUUGGGAUGUUCCUUU [random2] (Eterna round: R96, puzzle: Exclusion NG 1)
# output 27.4

# input Please look up its apparent KD of MS2 coat protein: GUGUACGGAGGAUAUAUAUGGGCAGCAUACGCUGCAGCUUCACAUGAGGAUCACCCAUGUAGAAGGCUGUACAC [Mat - Exclusion 2 - Mod of Hyphema - D100] (Eterna round: R96, puzzle: Exclusion 2)
# output 18.5

# input Data request, read-out apparent KD of MS2 coat protein, for ACAAACAGCUGAGGAUAUCACGAGCAAGGCCAGUGAGAAGGUAGCUCAAACAUGAGGAUCACCCAUGUUAAACUUCCUCAUGCG [Raisorar] (Eterna round: R96, puzzle: Exclusion NG 1)
# output 10.4

# input Which apparent KD of MS2 coat protein is listed for UCUCGCGGGCAAGGAUAUCCCACGCUGUUCUGGCCCGUGUUUGUUACAUGAGGAUCACCCAUGUGGGAGAAGGUGCACCAGGGC [Design 42] (Eterna round: R96, puzzle: Exclusion NG 2) ?
# output 96.3

# input // apparent KD of MS2 coat protein lookup, key: ACAAAACAUGAGGAUCACCCAUGUGAGGAUAUGCGAAACAAACAAACAAACAAACAAAGCAGAAGGCACAACAA [Ex 1 Tesla 3] (Eterna round: R96, puzzle: Exclusion 1)
# output 15.6

# input Reported apparent KD of MS2 coat protein for GUGGGUUACAUGAGGAUCACCCAUGUAGAGUGGGAAGAGAGAUAGGAUAUGAUGUGAGAAUCAUAUCAGAAGGAUCGAGACUCG [AK ExNG3-2.3] (Eterna round: R96, puzzle: Exclusion NG 3) : what is it?
# output 158

# input Given the sequence GUCUGGCUAGGAUAUACAGUGUCCACAAGUUAGUUACCCUAACAUGAGGAUCACCCAUGUAGAAGGAGUGAGAA [Revebeed] (Eterna round: R96, puzzle: Exclusion 2) , what is its reported apparent KD of MS2 coat protein?
# output 34.7

# input Requested field: apparent KD of MS2 coat protein. Item: ACAUGAGGAUCACCCAUGUCCGUCUGAUCUGUCUCGGCUGUCGAGGAUAUAGCCCGGUAUCCGCGCUAGAAGGUGGGAGUCGGC [Aenatbe mod 99] (Eterna round: R96, puzzle: Exclusion NG 3)
# output 25.3

# input I am curious: what apparent KD of MS2 coat protein value has been reported for ACGCAUUGCCUUUGGUAGUGCGUUACAUGAGGAUCACCCAUGUAGGAUAUGGUAGGCUUUGCUUACCAGAAGGACAUGAUAAUU [JL ENG3 1.02] (Eterna round: R96, puzzle: Exclusion NG 3) ?
# output 29.1

# input Quick one: apparent KD of MS2 coat protein of UUUUUAUAUGAAGGAUAUACUUAACAUGAGGAUCACCCAUGUGGUGUUGUGAGUGAGUGAGUUUAGUAGAAGGUCAAUUCGUUU [JMF's solution 80] (Eterna round: R96, puzzle: Exclusion NG 2) ?
# output 294

# input Field request: apparent KD of MS2 coat protein | item: GCUUGUGCCCUAGGAUAUCGCCCAGCCAAUGGAUGAGAAGGAGGCGGGUGAAACAUGAGGAUCACCCAUGUAAACGCACAGGCG [Erdiusbi] (Eterna round: R96, puzzle: Exclusion NG 1)
# output 18

# input Name the reported apparent KD of MS2 coat protein value associated with the sequence AGCUAGUCAGGAUAUACGCAAACGAACGAAGCAGUGAAGGGACAUGAGGAUCACCCAUGUAGAAGGGACUAGCA [Diamond 30] (Eterna round: R96, puzzle: Exclusion 2)
# output 17.4

# input Give its apparent KD of MS2 coat protein value. Item: ACAUGUUAUUUAGGAUAUUGGACACAUGAGGAUCACCCAUGUACCCGGAGGCUUUACUAUGAGUUCGAGAAGGAGAUGUACAUG [Ex NG2 #70] (Eterna round: R96, puzzle: Exclusion NG 2)
# output 59.3

# input Name the reported apparent KD of MS2 coat protein value associated with the sequence AUGGGUCCUCACGGAGCUACAUGAGGAUCACCCAUGUGUAUUGAGGAUAUCCACUGCCGAGGGCUGGAGAAGGCAGUGUACUGU [Ex NG3 #92] (Eterna round: R96, puzzle: Exclusion NG 3)
# output 89.3
